meta.source: ChEMBL document CHEMBL6134871

assay: Oral bioavailability in C57 mouse at 5 mg/kg; format: ADME, organism-based; conditions: C57, mouse, in vivo
readout label: bioavailability (%)
One number for each entry, in %.

Q: What measured bioavailability goes with COc1cc2c(cc1OCCCCN1C(=O)/C(=C\c3cc(Br)c(O)c(OC)c3)c3cc(Br)ccc31)C(C)(CC(=O)Nc1nccs1)NCC2 (stereo unspecified) ?
Ans: 1.02

* * *

test: AUC (0 to t) in C57 mouse at 5 mg/kg, iv; format: ADME, organism-based; details: in vivo
readout label: AUC(0-t) (ng·h/mL)
Numbers only, in ng·h/mL.

COc1cc2c(cc1OCCOCCOCCOCCN1C(=O)/C(=C\c3cc(Br)c(O)c(Br)c3)c3cc(I)ccc31)C(C)(CC(=O)Nc1nccs1)NCC2 (configuration not stated)    9500

We next turn to a different molecule, shown below.
Q: What measured AUC(0-t) goes with COc1cc2c(cc1OCCCCN1C(=O)/C(=C\c3cc(Br)c(O)c(OC)c3)c3cc(Br)ccc31)C(C)(CC(=O)Nc1nccs1)NCC2 (configuration not stated) ?
Ans: 9810
